Origin of the recorded values: ChEMBL document CHEMBL1201862

- Test system: HOP-92
- Assay Name: NCI tumour cell line growth inhibition, 48 h
Active and inactive are the calls of the source. No stated cut-off is given here; in the data, active = GI50 up to about 1.1 µM and inactive = higher.
Result Type: GI50

>  <Molecule>
CC(=O)OCC(OC(C)=O)C(OC(C)=O)C(OC(C)=O)C(/C=N\Nc1nc2ccccc2c(=O)[nH]1)OC(C)=O (stereo not drawn)

>  <System Name>
HOP-92

>  <Result>
> 100 µM (inactive)

$$$$
>  <Molecule>
Cc1ccc(/C=C/C(=O)C(C)C)cc1

>  <System Name>
HOP-92

>  <Result>
41.8 µM (inactive)

$$$$
>  <Molecule>
NNC(=O)/C(=C/c1cccc([N+](=O)[O-])c1)NC(=O)c1ccccc1

>  <System Name>
HOP-92

>  <Result>
> 100 µM (inactive)

$$$$
>  <Molecule>
CC(=O)O[C@H]1C(=O)[C@@]2(C)[C@H]([C@H](OC(=O)c3ccccc3)[C@]3(O)C[C@H](OC(=O)[C@H](O)[C@@H](NC(=O)c4ccc(N(C)C)cc4)c4ccccc4)C(C)=C1C3(C)C)[C@]1(OC(C)=O)CO[C@@H]1C[C@@H]2O

>  <System Name>
HOP-92

>  <Result>
> 28.8 µM (inactive)

$$$$
>  <Molecule>
NCCSc1nc(-c2ccccc2)c(-c2ccccc2)o1

>  <System Name>
HOP-92

>  <Result>
> 100 µM (inactive)

$$$$
>  <Molecule>
CCCCOc1ccc2c(c1)CC[C@@H]1[C@@H]2CC[C@]2(C)C(=O)N(CCCC)C(=O)C[C@@H]12

>  <System Name>
HOP-92

>  <Result>
> 100 µM (inactive)

$$$$
>  <Molecule>
CC(SC(=S)N1CCCCC1)C(=O)Nc1nnc(-c2ccc(Cl)cc2)o1 (stereo not drawn)

>  <System Name>
HOP-92

>  <Result>
45.8 µM (inactive)

$$$$

Given the entry Cc1ccc(S(=O)(=O)N/N=C2/CCC3(O)CC2(C)CCC2[C@H]3CC2(C)C)cc1 (stereo partly drawn) , report its measured GI50.
29.2 µM (inactive)

###

- Tested on: MOLT-4
- Assay Name: NCI tumour cell line growth inhibition, 48 h
Calls of active or inactive are those of the source. Cut-off read from the data, not from the text of the source: active = GI50 up to about 1.1 µM and inactive = higher.
Pick from true for active, false for inactive when you respond.

These solved cases illustrate the format of a correct answer.
>  <Compound>
CCOc1ccc(Nc2nc3c(s2)C(=O)c2ccccc2C3=O)cc1

>  <Assigned Class>
false

$$$$
>  <Compound>
NC1CSc2ccccc2NC1=O (stereo not given)

>  <Assigned Class>
false

$$$$
>  <Compound>
COc1ccc2/c(=C/c3ccc(N(C)C)cc3)c3cc(-c4ccccc4)[n+](C)n3c2c1

>  <Assigned Class>
true

$$$$
>  <Compound>
CC(NC(=O)c1ccccc1)C(=O)N(Cc1ccccc1)Cc1ccccc1 (stereo not given)

>  <Assigned Class>
false

$$$$
>  <Compound>
Cc1c/c(=N/NC(=O)c2ccncc2)n2nc(N)sc2n1

>  <Assigned Class>
false

$$$$

Please share the test call associated with Cn1cccc1/C=C/c1cc(Br)c(/C=C/c2cccn2C)cc1Br .
false

Please share the test call associated with Cc1cccc(NC(=O)C(=O)C(C2OC(=O)c3ccccc32)[N+](=O)[O-])c1C (stereo not given) .
false

###

- Test system: Malme-3M
- Assay Name: NCI tumour cell line growth inhibition, 48 h
The source made the active and inactive calls. No stated cut-off is given here; in the data, active = GI50 up to about 1.1 µM and inactive = higher.
Result Type: GI50

Worked cases, GI50 given:
>  <Compound>
Cc1cc2[nH]c3c(C#N)c(-c4ccccc4)c(/N=N/c4cccc(C(F)(F)F)c4)c(=O)n3c2cc1C

>  <Result Type>
GI50

>  <Result>
42.9 µM (inactive)

$$$$
>  <Compound>
C=C1CC(Cn2ccc(=O)[nH]c2=O)(c2ccc(-c3ccccc3)cc2)OC1=O (centres undefined)

>  <Result Type>
GI50

>  <Result>
1.46 µM (inactive)

$$$$
>  <Compound>
COc1c(Cl)ccc(Cl)c1-c1nnc(-c2c(Cl)c(Cl)c(Cl)c(Cl)c2-c2nc3cc(C(=O)c4ccccc4)ccc3[nH]2)o1

>  <Result Type>
GI50

>  <Result>
47.1 µM (inactive)

$$$$

Turning now to a further record.
Given the entry CC(SC(=S)N1CCCCC1)C(=O)Nc1nnc(-c2ccc(Cl)cc2)o1 (centres undefined) , report its measured GI50.
19.1 µM (inactive)
